Assay Target: p110γ (Homo sapiens, UniProt P48736)
Sequence (P48736 whole entry): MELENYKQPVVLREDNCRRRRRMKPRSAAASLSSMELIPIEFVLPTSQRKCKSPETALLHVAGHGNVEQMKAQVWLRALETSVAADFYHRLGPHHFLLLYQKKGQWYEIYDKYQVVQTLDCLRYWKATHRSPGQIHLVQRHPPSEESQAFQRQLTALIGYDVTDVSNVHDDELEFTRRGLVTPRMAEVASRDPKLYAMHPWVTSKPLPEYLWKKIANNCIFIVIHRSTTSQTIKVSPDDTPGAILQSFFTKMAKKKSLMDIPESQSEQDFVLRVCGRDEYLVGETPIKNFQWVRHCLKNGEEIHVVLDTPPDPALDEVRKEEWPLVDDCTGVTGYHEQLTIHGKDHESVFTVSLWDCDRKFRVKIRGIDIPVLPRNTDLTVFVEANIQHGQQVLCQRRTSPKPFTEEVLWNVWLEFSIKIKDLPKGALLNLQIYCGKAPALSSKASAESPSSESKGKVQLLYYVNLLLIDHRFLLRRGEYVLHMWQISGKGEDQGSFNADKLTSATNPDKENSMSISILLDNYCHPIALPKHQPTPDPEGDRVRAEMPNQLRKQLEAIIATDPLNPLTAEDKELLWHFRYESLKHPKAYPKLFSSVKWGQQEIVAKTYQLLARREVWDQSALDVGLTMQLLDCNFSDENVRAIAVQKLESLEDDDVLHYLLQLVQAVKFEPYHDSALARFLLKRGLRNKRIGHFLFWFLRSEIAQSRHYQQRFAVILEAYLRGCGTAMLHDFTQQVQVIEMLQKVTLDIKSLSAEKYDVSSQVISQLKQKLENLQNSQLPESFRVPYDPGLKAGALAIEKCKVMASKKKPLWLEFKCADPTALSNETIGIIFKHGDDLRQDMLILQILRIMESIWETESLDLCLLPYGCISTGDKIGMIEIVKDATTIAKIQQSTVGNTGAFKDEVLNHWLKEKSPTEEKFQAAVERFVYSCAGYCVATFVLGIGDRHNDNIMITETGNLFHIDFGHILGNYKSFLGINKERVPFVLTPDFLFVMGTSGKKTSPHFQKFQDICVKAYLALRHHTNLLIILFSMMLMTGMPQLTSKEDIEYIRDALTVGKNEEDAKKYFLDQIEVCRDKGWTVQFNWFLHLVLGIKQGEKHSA
Measurement Type: pIC50
Give bare numbers, as −log10 of the molar value.

Answered examples (3):
Cc1nc(N)nc(N2CC[C@H]2c2nn3ccc(C#N)c3c(=O)n2-c2ccccc2)c1C#N [Compound 497]
7.96
C[S@+]([O-])c1c[nH]c2ncnc(N3C[C@@H](F)C[C@H]3c3nn4ccc(Cl)c4c(=O)n3-c3cccc(F)c3)c12 [Compound 392]
7.21
Nc1ccc(-c2c[nH]c3ncnc(N4CC[C@H]4c4nn5ccc(F)c5c(=O)n4-c4ccccc4)c23)cn1 [Compound 183]
8.30

Need pIC50 for each of these molecules.
1. Nc1ncc(F)c(N2CCC[C@H]2c2nn3ccc(Cl)c3c(=O)n2-c2ccccc2)n1 [Compound 215]
2. Cc1ccn2cc(C(C)Nc3ncnc4[nH]cnc34)n(-c3ccccc3)c(=O)c12 (stereo not shown) [Compound 92]

[6.87, 7.70]

Need pIC50 for each of these molecules.
1. N#Cc1c[nH]c2ncnc(N3CCC[C@H]3c3nn4ccc(Cl)c4c(=O)n3C3CCC3)c12 [Compound 162]
2. CC(Nc1ncnc2[nH]cnc12)c1cn2cccc2c(=O)n1-c1ccccc1 (stereo not shown) [Compound 83]

8.22
6.51
